target: T1, human Claudin18.2 (CLDN18.2) (human, UniProt P56856 1-261); assay: FACS on GAXC031 cells, antibody at 50 µg/ml
T1 construct: the cell line is named under assay; also called human Claudine18.2; hClaudin18.2
METRIC: MAX MFI
Answer with the value's number alone.

Enquiry: // query MAX MFI value for entry chAb18 (antibody, V domains shown) VH: QVQLKESGPGLVAPSQSLSITCTVSGFSLTTYGINWVRQPPGKGLEWLGVIWGDGSTNYHSALISRLSISKDNSKSQVFLKLNSLQTDDTATYYCVKSSYYGNAMDYWGQGTSVTVSS VL: DIVMTQSPSSLTVTAGETVTMSCKSSQSLLNSGNQKNYLTWYQQKPGQPPKLLIYWASTRESGVPDRFTGSGSGTDFTLTISSVQAEDLAVYYCQNVYSYPFTFGSGTKLEI
Return: 3690

Enquiry: What value of measured MAX MFI is listed for chAb10 (antibody, V domains shown) VH: EVMLVESGGGLVKPGGSLKLSCAASGFTFSSYTMSWVRQTPEKRLEWVATISVIGGNTYYVDSVKGRFTISRDKAKNTLYLQMSSLRSEDTALYYCARLGQTQRNAMDYWGQGTSVTVSS VL: DIVMTQSPSSLSVSAGEKVTMSCKSSQSLLNSGNQKNYLAWYQQKPGQPPKLLIYGASTRESGVPDRFTGSGSGTDFTLTISSVQAEDLAVYYCQNDYSYPLTFGAGTKLELK ?
Return: 6940

Enquiry: May I ask what MAX MFI has been recorded for chAb29 (antibody, V domains shown) VH: EVLLQQSGPELVKPGASVKIPCKASGYTLTDHSMDWVKQSHGKSLEWIGNILPNNGGNIYNQKFRGKATLTVDKSSSTAYMELRSLTSEDTAVYNCARGHYGNSFAYWGQGTLVIVS VL: DIVMTQSPSSLTVRAGEKVTIYCKSSQSLFNSGNQKNYLTWYQQKPGQPPKLLIYWASTRESGVPHRFTGSGSGTDFTLTISSMQADDLATYYCQNGYFFPYTFGGGTKLEIK ?
Return: 5640

Enquiry: Suppose we examine the binder chAb11 (antibody, V domains shown) VH: EVMLVESGGDLVKPGGSLKLSCAASGFTFSRYTMSWVRQTPEKRLEWVATVSVGSGNTYYLDSVKGRFTISRDNAKNTLFLQMNSLRSEDTALYYCTRLGQTQRNAVDYWGQGTSVTVSS VL: DIVMTQSPSFLSVSAGEKVTMSCKSSQSLFNGGNQKNYLAWYQQKPGQPPKLLIYGASTRDSGVPDRFTGSGSGTDFTLTISNVQAEDLAIYFCQNDHSFPLTFGAGTKLELK ; what MAX MFI value has been reported?
Return: 6420
